Cited source for all entries: patent US20070020327A1

target: HLA-A*1101 (human); experiment: competition with 125I-labelled standard peptide 940.06 for purified HLA, gel filtration; conditions: scale: ratio
quantity name: binding affinity ratio
# output: bare number, no unit

Example binders with recorded binding affinity ratio:
{"binder": "DALFDIESK (modifications not checked) [PSM 710 …]", "binding affinity ratio": 0.0002}
{"binder": "EIASKFSER (modifications not checked) [PSM 641 …]", "binding affinity ratio": 0.0002}
{"binder": "DIESKVDPSK (modifications not checked) [PSM 714 …]", "binding affinity ratio": 0.0002}

I'd like to know its binding affinity ratio. The binder in question is DVLLSYPNK (modifications not checked) [PSM 114 …]
0.001
